Item-by-item account of IC50
Target: prostaglandin dehydrogenase (PGDH) (Sus scrofa, UniProt A0ACM8QJV0)
Construct: on a PGDH preparation from pig lung; from tissue; host or cells: pig lung
Sequence (A0ACM8QJV0 1-266): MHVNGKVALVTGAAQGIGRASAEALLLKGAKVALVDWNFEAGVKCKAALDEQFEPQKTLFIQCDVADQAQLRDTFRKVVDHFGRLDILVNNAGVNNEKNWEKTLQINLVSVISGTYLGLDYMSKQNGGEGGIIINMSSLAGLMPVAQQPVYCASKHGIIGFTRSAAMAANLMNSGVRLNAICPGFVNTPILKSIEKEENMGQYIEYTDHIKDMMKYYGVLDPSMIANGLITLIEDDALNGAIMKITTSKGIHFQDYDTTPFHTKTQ
Experiment: Prostaglandin dehydrogenase (PGDH) inhibiting action, method of Marrazzi and Matschinsky, PGDH preparation from pig lung
Assay type: biochemical
Conditions: concentration inhibiting enzyme function to 50%; PGDH from pig lung; read-out: I50% inhibiting level in final concentration, PGDH
Text: The I50%, i.e. the index of inhibition, is defined as the concentration of the substance inhibiting to 50% the function of the corresponding enzyme.
Only the number, expressed in µM, is required.

1) Cc1cc(C)n(-c2ccc(NCc3ccccc3)nn2)n1: 200

As a next step, examine the molecule that follows.
Query block: Quote IC50 reported for Cc1nn(-c2ccc(NN)nn2)c(C)c1Cl please.
Result block: 110

====

experiment: in vivo; details: mouse, po
measured.metric: LD50 (mg/kg)
The response must be a number in mg/kg with no trailing unit.

Use these answered entries as a reference point.
1) Cc1cc(C)n(-c2ccc(NN)nn2)n1: 200
2) NNc1ccc(-n2cc(N)cn2)nn1: 200
3) Cl.NNc1nncc2ccccc12 [Hydralazine, 1-hydrazinophthalazine hydrochloride, reference compound]: 200
4) Cc1nn(-c2ccc(NNC(=O)OC(C)(C)C)nn2)c(C)c1N: 200
5) NNc1ccc(-n2nccc2N)nn1: 200

Query block: Check the records and state LD50 for CCc1nn(-c2ccc(NN)nn2)c(CC)c1N
Result block: 200

Query block: Tell me its LD50 given Cc1nn(-c2ccc(NN)nn2)c(C)c1C as the entry.
Result block: 100

Query block: Item NNc1ccc(-n2nc(C3CC3)cc2C2CC2)nn1 : provide LD50
Result block: 100

====

assay: in vivo; conditions: mouse, po
measured.metric: LD50

Check out these entries, answers already filled in.
1) CCc1cc(CC)n(-c2ccc(NN)nn2)n1: ~150 mg/kg
2) Cc1nn(-c2ccc(NN)nn2)c(C)c1N: > 200 mg/kg

Now consider a different compound.
Query block: Output LD50 of Cc1nn(-c2ccc(NN)nn2)c(C)c1Cl
Result block: > 200 mg/kg
